System: Hepatitis C virus
Experiment: Antiviral activity against HCV genotype 1b infected in human HuH7 cells after 3 days by luciferase reporter gene assay
Type: functional, organism-based, Hepacivirus hominis
Settings: Huh-7, 72 h
property_measured: EC50 (µM)

Sample answers from the record:
> print(dat)
                            chemical.smiles  test.value
1  COc1ccc(NC(=O)c2c(NCCO)cc(-c3ccc(Br)cc3)oc2=O)cc1          14
2  O=C(Nc1cc([N+](=O)[O-])ccc1O)c1c(NO)cc(-c2ccccc2)oc1=O         3.5

I: O=C(NC1CCCCC1)c1c(NO)cc(-c2ccc(F)cc2)oc1=O
II: O=C(Nc1ccccc1)c1c(NO)cc(-c2cccs2)oc1=O
III: O=C(NCCBr)c1c(NCCO)cc(-c2cccs2)oc1=O
Ascending sort, EC50. Please respond with the labels ordered as the question requires.
II, I, III

---

Test: Cytotoxicity against human HuH7 cells after 3 days by tetrazolium dye method
Format: cell-based, Huh-7
property_measured: CC50 at 72 h

Sample answers from the record:
> print(dat)
                            chemical.smiles  test.value
1  O=C(Nc1ccc(Br)cc1)c1c(NCCO)cc(-c2ccc(Br)cc2)oc1=O     > 20 µM
2  CCOc1ccccc1NC(=O)c1c(NCCO)cc(-c2ccccc2)oc1=O     > 20 µM

Given item O=C(NC1CCCCC1)c1c(NO)cc(-c2ccc(F)cc2)oc1=O , the value recorded as its CC50 at 72 h is 11.4 µM

Given item Cc1ccc(NC(=O)c2c(NO)cc(-c3cccs3)oc2=O)cc1 , the value recorded as its CC50 at 72 h is > 20 µM

---

System: Hepatitis C virus
Test: Antiviral activity against HCV genotype 1b infected in human HuH7 cells after 3 days by luciferase reporter gene assay
Format: functional, organism-based, Hepacivirus hominis
Settings: Huh-7, 72 h
pEC50: −log10 of the molar value.
property_measured: pEC50

> print(dat)
                            chemical.smiles  property.measured  test.value
1  CCOc1ccccc1NC(=O)c1c(NO)cc(-c2ccccc2)oc1=O              pEC50        5.96
2  Cc1ccc(NC(=O)c2c(NO)cc(-c3cccs3)oc2=O)cc1              pEC50        6.41
3  Nc1ccccc1NC(=O)c1c(NO)cc(-c2ccccc2)oc1=O              pEC50        6.32
4  Cc1ccc(-c2cc(NO)c(C(=O)NC3CCCCC3)c(=O)o2)cc1              pEC50        5.30
5  O=C(Nc1ccc(Br)cc1)c1c(NO)cc(-c2cccs2)oc1=O              pEC50        5.22

1: O=C(Nc1ccc(Cl)cc1)c1c(NO)cc(-c2cccs2)oc1=O
2: O=C(Nc1cccc(C(F)(F)F)c1)c1c(NO)cc(-c2ccccc2)oc1=O
Decide: 1 or 2 , by lowest recorded pEC50. In your reply, give the label of the chosen option.
1
(1: 5.42, 2: 5.92)

A: CCOc1ccccc1NC(=O)c1c(NCCO)cc(-c2cccs2)oc1=O
B: O=C(Nc1ccccc1O)c1c(NO)cc(-c2ccccc2)oc1=O
Pick the one with the larger pEC50: A vs B In your reply, give the label of the chosen option.
B
